Assay: Kpuu assay (in vivo brain-to-plasma unbound partition)
Details: brain (unbound) versus plasma (unbound); intravenous infusion 4 to 24 h; unbound brain/plasma ratio; read-out: Brain Kpu, u
Counter-ions that a name gives are not always drawn.
reported.endpoint: Kpuu (unbound brain-to-plasma partition coefficient)

[[record]]
compound = "CC(C)Oc1nc2nc(C34CCC(C)(C3)OC4)cn2cc1C(=O)Nc1cccn([C@H]2C[C@H]2C)c1=O (stereo in doubt) [Example 187, trifluoroacetate]"
numeric_value = 0.19

[[record]]
compound = "CC(C)Oc1cc2nc(C34CCC(C)(CC3)OC4)cn2cc1C(=O)Nc1ccn(C)n1 [Comparator 5C, reference compound]"
numeric_value = 0.4

[[record]]
compound = "CC(C)Oc1cc2nc([C@@]34CC[C@@](C)(C3)OC4)cn2cc1C(=O)Nc1cccn(C)c1=O (single isomer, unassigned) [Comparator 3D, reference compound]"
numeric_value = 1.1

[[record]]
compound = "CC(C)Oc1nc2nc(C34COC(C)(C3)C4)cn2cc1C(=O)Nc1cccn([C@H]2C[C@H]2C)c1=O [Example 136]"
numeric_value = 0.4

[[record]]
compound = "CC(C)Oc1nc2nc(C34COC(C)(C3)C4)cn2cc1C(=O)Nc1cccc(C(F)F)n1 [Comparator 2A, reference compound]"
numeric_value = 0.4

[[record]]
compound = "CC(C)Oc1cc2nc(C34COC(C)(C3)C4)cn2cc1C(=O)Nc1cccc(C(F)F)n1 [Comparator 1A, reference compound]"
numeric_value = 0.4


---

# IC50 per entry for IRAK4 (Homo sapiens (Human), UniProt Q9NWZ3)
reported.endpoint: IC50

[[record]]
compound = "CC12CC(c3cn4cc(C(=O)Nc5cccn([C@@H]6C[C@@H]6F)c5=O)c(OC5CC5)cc4n3)(CO1)C2 (single isomer, unassigned)"
result = "37.5 nM"

[[record]]
compound = "CC12CC(c3cn4cc(C(=O)Nc5cccn([C@@H]6C[C@@H]6F)c5=O)c(OC5CCC5)cc4n3)(CO1)C2 (single isomer, unassigned)"
result = "27 nM"

[[record]]
compound = "CC(C)Oc1cc2nc([C@@]34CC[C@@](C)(C3)OC4)cn2cc1C(=O)Nc1ccnn(C2CC2)c1=O"
result = "1.2 nM"

[[record]]
compound = "O=C(Nc1cccn(C2CC2)c1=O)c1cn2cc(C34COC(C3)C4)nc2nc1OC1CCC1"
result = "1.7 nM"

[[record]]
compound = "CC[C@H](C)Oc1cc2nc([C@@]34CC[C@@](C)(C3)OC4)cn2cc1C(=O)Nc1cccn(C2CC2)c1=O (single isomer, unassigned)"
result = "0.3 nM"

[[record]]
compound = "CC12CC(c3cn4cc(C(=O)Nc5ccnn(C6CC6)c5=O)c(OC5CCC5)nc4n3)(CO1)C2"
result = "4.2 nM"


---

Biological target: MDR1 (Homo sapiens (Human), UniProt P08183)
Sequence (P08183 whole entry): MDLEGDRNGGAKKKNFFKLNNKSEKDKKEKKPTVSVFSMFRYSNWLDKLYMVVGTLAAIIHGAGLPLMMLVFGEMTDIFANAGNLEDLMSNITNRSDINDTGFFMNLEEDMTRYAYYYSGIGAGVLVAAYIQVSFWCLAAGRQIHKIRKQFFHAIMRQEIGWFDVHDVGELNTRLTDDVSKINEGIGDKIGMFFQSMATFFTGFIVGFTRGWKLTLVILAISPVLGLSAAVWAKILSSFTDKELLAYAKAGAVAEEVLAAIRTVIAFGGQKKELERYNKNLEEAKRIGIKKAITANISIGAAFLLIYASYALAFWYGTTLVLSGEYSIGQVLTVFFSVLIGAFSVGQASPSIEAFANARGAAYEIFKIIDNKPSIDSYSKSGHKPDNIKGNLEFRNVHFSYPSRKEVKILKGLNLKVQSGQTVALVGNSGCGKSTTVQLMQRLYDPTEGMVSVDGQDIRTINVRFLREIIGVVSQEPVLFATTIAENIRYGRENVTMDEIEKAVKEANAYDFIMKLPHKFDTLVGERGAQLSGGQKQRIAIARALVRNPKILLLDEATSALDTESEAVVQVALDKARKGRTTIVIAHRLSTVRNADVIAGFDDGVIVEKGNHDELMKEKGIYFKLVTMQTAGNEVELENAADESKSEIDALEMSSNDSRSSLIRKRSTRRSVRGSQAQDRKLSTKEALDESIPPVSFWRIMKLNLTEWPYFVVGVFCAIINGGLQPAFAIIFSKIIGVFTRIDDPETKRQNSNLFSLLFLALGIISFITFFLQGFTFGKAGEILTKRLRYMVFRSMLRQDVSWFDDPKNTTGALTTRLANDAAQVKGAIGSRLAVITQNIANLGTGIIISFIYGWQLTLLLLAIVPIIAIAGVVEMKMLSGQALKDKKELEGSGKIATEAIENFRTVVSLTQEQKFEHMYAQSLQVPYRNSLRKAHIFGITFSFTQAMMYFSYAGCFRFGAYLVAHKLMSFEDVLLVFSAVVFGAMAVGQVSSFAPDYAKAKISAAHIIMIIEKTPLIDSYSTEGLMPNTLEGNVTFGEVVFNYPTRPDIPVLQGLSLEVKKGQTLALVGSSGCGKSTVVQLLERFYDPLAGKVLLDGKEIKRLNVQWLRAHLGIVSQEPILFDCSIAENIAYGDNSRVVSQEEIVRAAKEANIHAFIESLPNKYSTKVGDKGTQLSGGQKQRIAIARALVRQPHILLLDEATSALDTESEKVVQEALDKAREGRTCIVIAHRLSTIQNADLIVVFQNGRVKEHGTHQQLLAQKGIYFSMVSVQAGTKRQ
Test: in vitro
Conditions: MDCK-MDR1
Where a name gives a salt, the structure may show the parent alone.
reported.endpoint: efflux ratio at 120 min, 1 μM

[[record]]
compound = "CC12CC(c3cn4cc(C(=O)Nc5cccn([C@@H]6C[C@@H]6F)c5=O)c(OC5CC5)cc4n3)(CO1)C2 (racemic) [Example 105]"
result = 15.8

[[record]]
compound = "CC(C)Oc1nc2nc([C@@]34CC[C@@](C)(C3)OC4)cn2cc1C(=O)Nc1cccn([C@H]2CC23CC3)c1=O (single isomer, unassigned) [Example 150]"
result = 1

[[record]]
compound = "CC(C)Oc1cc2nc([C@]34CC[C@H](C3)OC4)cn2cc1C(=O)Nc1cccn(C2CC2)c1=O (single isomer, unassigned) [Example 40]"
result = 7.5

[[record]]
compound = "CC(C)Oc1cc2nc([C@]34CC[C@](C)(C3)OC4)cn2cc1C(=O)Nc1cccn([C@H]2C[C@H]2F)c1=O [Example 171]"
result = 9.8

[[record]]
compound = "CCC(C)Oc1cc2nc([C@@]34CC[C@@](C)(C3)OC4)cn2cc1C(=O)Nc1cccn(C2CC2)c1=O (stereo partly shown) [Example 20]"
result = 2.8

[[record]]
compound = "CC12CC(c3cn4cc(C(=O)Nc5cccn(C6CC6)c5=O)c(OC5CCC5)cc4n3)(CO1)C2 [Example 27]"
result = 4

[[record]]
compound = "CC(C)Oc1cc2nc([C@]34CC[C@](C)(C3)OC4)cn2cc1C(=O)Nc1cccn(C2CC2)c1=O (single isomer, unassigned) [Example 5]"
result = 6.1

[[record]]
compound = "C[C@@H]1C[C@@H]1n1cccc(NC(=O)c2cn3cc(C45COC(C)(C4)C5)nc3nc2OC2CCC2)c1=O [Example 188, trifluoroacetate]"
result = 4.4

[[record]]
compound = "O=C(Nc1cccn([C@@H]2C[C@@H]2F)c1=O)c1cn2cc(C34COC(C3)C4)nc2nc1OC1CCC1 (single isomer, unassigned) [Example 166]"
result = 2.6

[[record]]
compound = "CO[C@@H]1C[C@H]1n1cccc(NC(=O)c2cn3cc(C45COC(C)(C4)C5)nc3nc2OC(C)C)c1=O (single isomer, unassigned) [Example 137]"
result = 4.8

[[record]]
compound = "CCC12CC(c3cn4cc(C(=O)Nc5cccn(C6CC6)c5=O)c(OC(C)C)cc4n3)(CO1)C2 [Example 2]"
result = 3.3

[[record]]
compound = "CC(C)Oc1cc2nc(C34COC(C3)C4)cn2cc1C(=O)Nc1cccn(C2CC2)c1=O [Example 34]"
result = 11.1

[[record]]
compound = "CC(C)Oc1cc2nc(C34CCC(C)(CC3)OC4)cn2cc1C(=O)Nc1ccn(C)n1 [Comparator 5C, reference compound]"
result = 2.2

